- Assayed System: T1, HIV (IPL peptide) peptide on HLA-B*35:01 (human)
- T1 peptide: IPLTEEAEL
- Run Description: data from [18]; method not given; soluble, other
Readout Kind: Kd (nM)
# output: bare number, implied unit nM

Record TU55 (TCR) alpha TRDV1*01 CDR3: ALGEGGAQKLV beta TRBV6-1*01 CDR3: ASRTRGGTLIEQY . Reported Kd: 270

Every entry's value here was drawn from paper PMC7793522.
